For each entry below, report its Emax value.
assayed target: human sphingosine-1-phosphate receptor 1 (S1P1) (Homo sapiens (Human))
Sequence (P21453 whole entry, looked up): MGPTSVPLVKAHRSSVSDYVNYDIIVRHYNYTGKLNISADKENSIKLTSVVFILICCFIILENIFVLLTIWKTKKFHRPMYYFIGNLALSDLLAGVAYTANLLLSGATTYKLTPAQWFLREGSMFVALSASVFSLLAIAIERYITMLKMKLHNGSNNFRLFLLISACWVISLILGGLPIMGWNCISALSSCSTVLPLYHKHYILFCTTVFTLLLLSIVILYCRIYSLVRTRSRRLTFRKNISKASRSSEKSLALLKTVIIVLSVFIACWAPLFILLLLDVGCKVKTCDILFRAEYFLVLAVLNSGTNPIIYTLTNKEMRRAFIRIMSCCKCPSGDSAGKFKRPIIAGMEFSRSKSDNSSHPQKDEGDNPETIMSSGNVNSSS
protocol description: Inhibition of cAMP production (HTRF cAMP HiRange), S1P1 CHO-K1 cells
Format: cell-based
protocol conditions: CHO-K1; efficacy (SPAN) normalized to fingolimod; read-out: hS1P1 cAMP SPAN

So what does the record say about Emax for COc1ccccc1-c1coc(-c2ccc3c(c2)nnn3C(C)C)n1 [Compound 277] ?
> 75%

So what does the record say about Emax for CC(C)(CO)n1nnc2cc(-c3noc(-c4cccnc4F)n3)ccc21 [Compound 643] ?
> 75%

So what does the record say about Emax for CCC1(CC)CC(=O)c2cc(-c3nnc(-c4cccnc4)s3)ccc2O1 [Compound 104] ?
> 75%

So what does the record say about Emax for c1ccc(Cc2noc(-c3ccc4c(c3)nnn4C3CCCC3)n2)cc1 [Compound 92] ?
< 75%

So what does the record say about Emax for C=CCNc1ccc(-c2nc(-c3ccc4[nH]ncc4c3)no2)cc1C#N [Compound 141] ?
> 75%

So what does the record say about Emax for Brc1ccccc1-c1nc(-c2ccc3c(c2)nnn3C2CCCCC2)no1 [Compound 115] ?
> 75%

So what does the record say about Emax for CCC1(CC)CC(=O)c2cc(-c3nnc(-c4ccc5c(c4)nnn5C(C)C)o3)ccc2O1 [Compound 223] ?
< 75%

So what does the record say about Emax for CC(C)Nc1ccc(-c2nnc(-c3ccc4[nH]ncc4c3)o2)cc1C#N [Compound 351] ?
> 75%

So what does the record say about Emax for COc1ccccc1-c1nc(-c2ccc3c(c2)nnn3C(C)C)co1 [Compound 575] ?
> 75%

So what does the record say about Emax for CC(C)n1nnc2cc(-c3nc(-c4ccncc4C(F)(F)F)no3)ccc21 [Compound 455] ?
> 75%

So what does the record say about Emax for Cc1ccc2oc(-c3ccc4c(c3)nnn4CC(C)C)nc2c1 [Compound 437] ?
> 75%

So what does the record say about Emax for CCC1(CC)CC(=O)c2cc(-c3nc(-c4ccc(N)cc4)no3)ccc2O1 [Compound 256] ?
> 75%

So what does the record say about Emax for COc1cccc(OC)c1-c1noc(-c2ccc3c(c2)nnn3C(C)C)n1 [Compound 251] ?
< 75%

So what does the record say about Emax for CC(C)(O)Cn1nnc2cc(-c3nc(-c4cccc5cc[nH]c45)no3)ccc21 [Compound 577] ?
< 75%

So what does the record say about Emax for CC(C)n1nnc2cc(-c3nnc(-c4ccccc4O)s3)ccc21 [Compound 70] ?
< 75%

So what does the record say about Emax for CCC1(CC)CC(=O)c2cc(-c3nnc(-c4cccnc4)o3)ccc2O1 [Compound 28] ?
> 75%

So what does the record say about Emax for CCC1(CC)CC(=O)c2cc(-c3nc(-c4ccc(OC)nc4)no3)ccc2O1 [Compound 301] ?
< 75%

So what does the record say about Emax for CC(F)CNc1ccc(-c2nc(-c3ccc4c(c3)CCC(=O)N4)no2)cc1C#N (stereo not drawn) [Compound 348] ?
> 75%
